test: Half life in CD-1 mouse at 3 mg/kg, iv by LC-MS/MS analysis; type: ADME, organism-based; settings: in vivo
Parameter Measured: half-life (min)

| Structure | Parameter Measured | Measured Value |
| --- | --- | --- |
| CNC(=O)c1cn(C[C@H](F)CCc2ccc(NC(=O)Cc3cc(OC4CC(F)(F)C4)cc(C)n3)nn2)nn1.Cl.Cl | half-life | 60 |

---

test: Intrinsic clearance in monkey hepatocytes […] at 2 uM measured after 15 to 120 mins by LC-MS analysis; type: ADME, cell-based, Macaca mulatta, Hepatocyte; details: rhesus monkey, time 15-120 min

| Structure | CLint |
| --- | --- |
| CNC(=O)c1cn(C[C@H](F)CCc2ccc(NC(=O)Cc3cc(OC4CC(F)(F)C4)cc(C)n3)nn2)nn1 | 12 mL/min/kg |
